B1: MATN2 (parent)
chain: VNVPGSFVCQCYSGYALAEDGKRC

Variants of: B1
Assay: protein stability index of a GFP-peptide fusion (GPS, HEK-293T) (PSI 1-6); higher = more stable;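 further: lentivirally expressed fusions sorted by FACS into six bins by GFP to DsRed ratio, PSI derived from sequencing read proportions per bin multiplied by bin number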
Details: c terminus: a fixed tail appended
Label met when protein stability index >= 2; otherwise not met.

As a guide, the following entries are already answered.
sequence_entry="VNVPGSFVCQCYSGYALAEDGKRQ [C24Q]" discrete_label=met
sequence_entry="VNVPGSFVCSCYSGYALAEDGKRC [Q10S]" discrete_label=met
sequence_entry="VNVPGSFVCQCLSGYALAEDGKRC [Y12L]" discrete_label=met
sequence_entry="VNVPMSFVCQCYSGYALAEDGKRC [G5M]" discrete_label="not met"
sequence_entry="VNVPNSFVCQCYSGYALAEDGKRC [G5N]" discrete_label="not met"

Could you please find out whether VNVPRSFVCQCYSGYALAEDGKRC [G5R] has protein stability index that meets 2 or exceeds it? met

Could you please find out whether VNVPGSFVCQRYSGYALAEDGKRC [C11R] has protein stability index that meets 2 or exceeds it? met

Could you please find out whether VNVPGSFVVQCYSGYALAEDGKRC [C9V] has protein stability index that meets 2 or exceeds it? met
